Documented kon across a set of binders
assayed.target: nucleocapsid protein of SARS-CoV-2 (SARS-CoV-2, UniProt P0DTC9 1-419)
Write it as a number; the unit M⁻¹ s⁻¹ goes unstated.

binder | measure.unit | kon
rabbit monoclonal antibody 1F8 against the SARS-CoV-2 nucleocapsid protein (antibody, V domains shown) VH: QEHLEESGGGLVKPGASLTLTCTASGFSLSNNYWICWVRQAPGKGLEWIACIYTGRDYTYYTSWAKGRFTISKTSSTTVTLQLNSLTAADTATYFCARNNTDYGDYWDLWGPGTLVTVSS VL: AQVLTQTASPVSVAVGDTVTINCQASQSVYKNNYLAWYQLKPGQPPKLLIYWGTKLPSGVPSRFKGSGSGTHFTLTISDVQCDDAATYYCLGSYDCTIAECNVFGGGTEVVVEG | M⁻¹ s⁻¹ | 90200

Qu. Requested read-out: kon. Entry: rabbit monoclonal antibody 1G7 against the SARS-CoV-2 nucleocapsid protein (antibody, V domains shown) VH: QQQVVESGGGLVKPGASLTLTCEASGFSFSSGYDMCWVRQAPGKGLEWIACIYPGSSGNTYYASWAKGRFTISKTSSTTVTLQMTSLTAADTATYFCARTYASSSGDYIPYFFNLWGPGTLVTVSS VL: DIVMTQTPASVEAAVGGTVTIKCQASENIYSGLAWYQQKPGQPPKLLIYDASDLASGVPSRFKGSGSGTEYTLTISDLECADAATYYCQNYYYSSRGFNTFGGGTEVVVKG
Ans. 12100

Where these numbers come from: patent US20220056112A1
